Value source: ChEMBL document CHEMBL5308504

Target: Mitogen-activated protein kinase 1 (Homo sapiens) (UniProt P28482)
Sequence (P28482 whole entry): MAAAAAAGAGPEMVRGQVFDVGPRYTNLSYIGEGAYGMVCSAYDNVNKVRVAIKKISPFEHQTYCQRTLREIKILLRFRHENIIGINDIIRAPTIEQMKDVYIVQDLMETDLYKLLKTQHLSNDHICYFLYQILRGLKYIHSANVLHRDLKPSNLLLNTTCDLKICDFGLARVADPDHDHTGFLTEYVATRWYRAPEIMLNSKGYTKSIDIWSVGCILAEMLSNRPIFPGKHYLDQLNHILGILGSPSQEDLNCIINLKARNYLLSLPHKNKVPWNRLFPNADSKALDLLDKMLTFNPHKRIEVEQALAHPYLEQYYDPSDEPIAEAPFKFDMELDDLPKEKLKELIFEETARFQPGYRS
Settings: Compound concentration 20.0 uM, Protein concentration 2.0 uM, Result type QC Liability
Description: Thermal Shift Assay. Domain: start/stop: M1-S360
Parameter Measured: ΔTm

According to the records, this compound O[C@]1(C(F)(F)F)CCCC[C@H]1Nc1ccc(F)cc1 displays ΔTm of 0.26 °C

According to the records, this compound CC[C@H](NC(=O)[C@H](C)NC)C(=O)N1C[C@@H](O)C[C@H]1Cc1c(-c2[nH]c3cc(F)ccc3c2C[C@@H]2C[C@H](O)CN2C(=O)[C@H](CC)NC(=O)[C@H](C)NC)[nH]c2cc(F)ccc12 displays ΔTm of 0.38 °C

According to the records, this compound CNCc1ccc(-c2cc(-c3nc(-c4ccc(S(=O)(=O)C(C)C)cc4)cnc3N)on2)cc1 displays ΔTm of -0.07 °C

According to the records, this compound COc1ccc2c(O[C@@H]3C[C@H]4C(=O)N[C@]5(C(=O)NS(=O)(=O)C6(C)CC6)CC5/C=C\CCCCC[C@H](NC(=O)c5ccn(C)n5)C(=O)N4C3)cc(OC(C)C)nc2c1C (some centres undefined) displays ΔTm of -0.6 °C
